- Assayed System: human amylin receptor (hAmyR3) (Homo sapiens, UniProt O60896+P30988)
- Construct: host or cells: BHK cells (Hollex-1 line: human calcitonin receptor (a) + CRE-Luc), further transfected with human RAMP3
- Sequence (P30988 25-474): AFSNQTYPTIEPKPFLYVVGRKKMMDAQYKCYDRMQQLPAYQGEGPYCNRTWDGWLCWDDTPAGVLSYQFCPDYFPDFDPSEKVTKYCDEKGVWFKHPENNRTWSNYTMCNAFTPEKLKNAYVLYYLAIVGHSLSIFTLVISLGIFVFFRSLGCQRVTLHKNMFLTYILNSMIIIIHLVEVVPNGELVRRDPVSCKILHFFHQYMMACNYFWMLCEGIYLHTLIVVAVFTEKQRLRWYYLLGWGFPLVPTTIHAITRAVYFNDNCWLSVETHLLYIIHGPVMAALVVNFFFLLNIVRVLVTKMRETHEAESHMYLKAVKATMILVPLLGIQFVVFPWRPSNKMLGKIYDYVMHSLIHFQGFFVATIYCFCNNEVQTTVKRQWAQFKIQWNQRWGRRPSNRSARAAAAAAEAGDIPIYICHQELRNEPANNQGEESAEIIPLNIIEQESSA
- Sequence (O60896 24-148): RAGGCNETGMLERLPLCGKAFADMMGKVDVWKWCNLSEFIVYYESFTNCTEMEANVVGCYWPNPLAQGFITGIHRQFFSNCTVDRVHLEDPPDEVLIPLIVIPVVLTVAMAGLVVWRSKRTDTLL
- Test Protocol: Human amylin receptor in vitro potency assay (CRE-luciferase reporter, BHK cells);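 also: BHK cells expressing human calcitonin receptor plus RAMP3 (amylin-3 receptor) with a CRE-luciferase reporter, agonist activity read as luminescence from cAMP-driven transcription, 7-point serial dilutions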
- Assay type: cell-based
- Measurement Context: Table 4a; BHK hAmyR3/CRE-Luc cells, 3 hours; read-out: Human AmyR3 potency [EC50 (pM)]
Starred links: 1 amine or outer side, 2 acyl side, 3 side chain; linkers in the order of their positions; H or OH if unused. Non-standard residues stand in square brackets, D forms with d. Groups on a side chain read outwards from the residue. *: point of attachment. Butyryl(4-SO2NHCO(CH2)16Tz) = O=C(CCCCCCCCCCCCCCCCc1nnn[nH]1)NS(=O)(=O)CCCC(=O)*; C18 diacid = O=C(O)CCCCCCCCCCCCCCCCC(=O)*; γGlu = O=C(O)[C@H](CCC(=O)[*:2])N[*:1]; AEEA = NCCOCCOCC(=O)O; Aib = CC(C)(N)C(=O)O
Reported EC50 values for the following substances.
Value Kind: EC50

- Substance: "H-H[Aib]EGTFTSDVSSYLEGQAAREFIAWLVRGRGQEPK([AEEA-AEEA-γGlu-C18 diacid])GQAPASRLSTEALGRLSAELHELATLPRTETGSGSP-NH2 [Compound 0191]"
  Value Kind: "EC50"
  Result: "54.8 pM"
- Substance: "H-H[Aib]EGTFTSDVSSYLEEQAARK(Butyryl(4-SO2NHCO(CH2)16Tz))FIAWLVRGRGEASELSTAALGRLSAELHELATLPRTETGSGSP-NH2 [Compound 0125]"
  Value Kind: "EC50"
  Result: "12.2 pM"
- Substance: "H-H[Aib]EGTFTSDVSSYLEGQAAREFIAWLVRGRK([AEEA-AEEA-γGlu-C18 diacid])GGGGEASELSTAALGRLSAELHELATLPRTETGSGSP-NH2 [Compound 0151]"
  Value Kind: "EC50"
  Result: "9.5 pM"

---

- Assayed System: human GLP-1 receptor (Homo sapiens, UniProt P43220)
- Construct: expressed in transfected cells; host or cells: BHK (Baby Hamster Kidney) cells, clone BHK 467-12A KZ-10, stably transfected, with CRE-luciferase reporter
- Sequence (P43220 24-463): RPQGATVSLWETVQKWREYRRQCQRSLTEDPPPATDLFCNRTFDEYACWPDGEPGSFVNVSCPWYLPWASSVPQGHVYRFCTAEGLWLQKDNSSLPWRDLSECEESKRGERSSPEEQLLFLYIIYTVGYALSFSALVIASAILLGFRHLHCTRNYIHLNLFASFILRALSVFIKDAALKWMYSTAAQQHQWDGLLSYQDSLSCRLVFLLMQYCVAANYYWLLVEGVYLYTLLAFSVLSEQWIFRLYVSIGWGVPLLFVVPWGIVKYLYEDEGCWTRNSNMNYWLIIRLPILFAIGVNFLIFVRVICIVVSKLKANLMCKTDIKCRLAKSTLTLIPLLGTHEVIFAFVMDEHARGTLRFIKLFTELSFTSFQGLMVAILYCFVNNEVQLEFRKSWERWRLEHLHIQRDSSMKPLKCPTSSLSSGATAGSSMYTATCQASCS
- Test Protocol: Human GLP-1 receptor in vitro potency assay (CRE-luciferase reporter, BHK cells)
- Assay type: cell-based
- Measurement Context: Table 4a; BHK cells expressing human GLP-1R, CRE-Luc, 3 hours; read-out: Human GLP-1R potency [EC50 (pM)]
Starred links: 1 amine or outer side, 2 acyl side, 3 side chain; linkers in the order of their positions; H or OH if unused. Non-standard residues stand in square brackets, D forms with d. Groups on a side chain read outwards from the residue. *: point of attachment. Butyryl(4-SO2NHCO(CH2)16Tz) = O=C(CCCCCCCCCCCCCCCCc1nnn[nH]1)NS(=O)(=O)CCCC(=O)*; C20 diacid = O=C(O)CCCCCCCCCCCCCCCCCCC(=O)*; C18 diacid = O=C(O)CCCCCCCCCCCCCCCCC(=O)*; C16 diacid = O=C(O)CCCCCCCCCCCCCCC(=O)*; γGlu = O=C(O)[C@H](CCC(=O)[*:2])N[*:1]; εLys = N[C@@H](CCCCN[*:1])C(=O)[*:2]; Trx = NC[C@H]1CC[C@H](C(=O)O)CC1; AEEA = NCCOCCOCC(=O)O; Aib = CC(C)(N)C(=O)O

- Substance: "H-H[Aib]EGTFTSDVSSYLEGQAAK([AEEA-AEEA-γGlu-Trx-C20 diacid])EFIAWLVRGRGGGGGGGGGEASELSTAALGRLSAELHELATLPRTETGSGSP-NH2 [Compound 0095]"
  Output Unit: "pM"
  EC50: 7.4
- Substance: "H-H[Aib]EGTFTSDVSSYLEGQAAK([AEEA-AEEA-γGlu-C18 diacid])EFIAWLVRGRGGGGEASELSTAALGRLSAELHELATLPRTETGSGSP-NH2 [Compound 0040]"
  Output Unit: "pM"
  EC50: 20.7
- Substance: "H-H[Aib]EGTFTSDVSSYLEEQAARK(Butyryl(4-SO2NHCO(CH2)16Tz))FIAWLVRGRGEASELSTAALGRLSAELHELATLPRTETGSGSP-NH2 [Compound 0125]"
  Output Unit: "pM"
  EC50: 8
- Substance: "H-H[Aib]EGTFTSDVSK([AEEA-AEEA-γGlu-C16 diacid])YLEEQAAREFIAWLVRGRK([AEEA-AEEA-γGlu-C16 diacid])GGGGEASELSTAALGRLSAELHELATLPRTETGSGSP-NH2 [Compound 0528]"
  Output Unit: "pM"
  EC50: 3.8
- Substance: "H-H[Aib]EGTFTSDVSSYLEEQAARK([AEEA-AEEA-γGlu-C18 diacid])FIEWLVRGK([AEEA-AEEA-γGlu-C18 diacid])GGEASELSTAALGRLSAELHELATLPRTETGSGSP-NH2 [Compound 0128]"
  Output Unit: "pM"
  EC50: 9.7
- Substance: "H-H[Aib]EGTFTSDVSSYLEEQAARK([AEEA-AEEA-γGlu-C18 diacid])FIEWLVRGK([AEEA-AEEA-γGlu-C18 diacid])GEGGEASELSTAALGRLSAELHELATLPRTETGSGSP-NH2 [Compound 0089]"
  Output Unit: "pM"
  EC50: 5.7
- Substance: "H-H[Aib]EGTFTSDVSSYLEEQAARK([AEEA-AEEA-γGlu-C16 diacid])FIAWLVRGRGGGGGEASELSTAALGRLSAELHK([AEEA-AEEA-γGlu-C16 diacid])LATLPRTETGSGSP-NH2 [Compound 0509]"
  Output Unit: "pM"
  EC50: 7.1
- Substance: "H-H[Aib]EGTFTSDVSSYLEEQAAREFIEWLVRGRK([εLys-AEEA-AEEA-γGlu-Trx-C20 diacid])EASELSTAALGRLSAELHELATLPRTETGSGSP-NH2 [Compound 0438]"
  Output Unit: "pM"
  EC50: 11.8
- Substance: "H-H[Aib]EGTFTSDVSSYLEEQAARK([AEEA-AEEA-γGlu-C18 diacid])FIEWLVRGRK([AEEA-AEEA-γGlu-C18 diacid])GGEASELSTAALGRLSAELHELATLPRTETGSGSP-NH2 [Compound 0129]"
  Output Unit: "pM"
  EC50: 1.2
- Substance: "H-H[Aib]EGTFTSDVSSYLEGQAAK([AEEA-AEEA-γGlu-C18 diacid])EFIAWLVRGRGGGGGGGGGGGGGEASELSTAALGRLSAELHELATLPRTETGSGSP-NH2 [Compound 0092]"
  Output Unit: "pM"
  EC50: 18.5
